# system tested: Genome polyprotein (West Nile virus, UniProt P06935)
# assay text: Binding affinity to WNV NS2B(K96A)-NS3 protease measured as change of 1H chemical shift of Glu101 by NMR spectroscopy

molecule | Kd, µM
N=C(N)c1cccc(NC(=O)Nc2cccc(C(=N)N)c2)c1 [AMICARBALIDE] | 70

* * *

# system tested: Genome polyprotein (West Nile virus)
# assay text: Binding affinity to WNV NS2B(K96A)-NS3 protease measured as change of 15N chemical shift of Ser137 by NMR spectroscopy

compound | Kd [µM]
N=C(N)c1cccc(NC(=O)Nc2cccc(C(=N)N)c2)c1 [AMICARBALIDE] | 90

* * *

# system tested: Genome polyprotein (West Nile virus)
# assay text: Binding affinity to WNV NS2B-NS3 protease measured as change of 1H chemical shift of Thr52 and Glu101 by NMR spectroscopy
pKd: −log10 of the molar value.

smiles code | pKd
Cc1cc(CSC(=N)N)c(C)cc1CSC(=N)N | 4.40

* * *

# system tested: Genome polyprotein (West Nile virus, UniProt P06935)
# assay text: Inhibition of WNV NS2B-NS3 protease
pIC50: −log10 of the molar value. Where a SMILES comes first, the peptide text is derived from it. [ ]: non-standard residue; d: D form. The star is where a group is joined. Nle = CCCC[C@H](N)C(=O)O; Bz = O=C(c1ccccc1)*

molecule | pIC50
CCCC[C@H](NC(=O)c1ccccc1)C(=O)N[C@@H](CCCCN)C(=O)N[C@@H](CCCNC(=N)N)C(=O)N[C@H](C=O)CCCNC(=N)N (Bz-[Nle]KRR-aldehyde) | 5.39
NCc1ccc(Nc2nnc(Nc3ccc(C4=NCCN4)cc3)c3ccccc23)cc1 | 4.97
CC1CNC(c2ccc(Nc3nnc(Nc4ccc(C5=NC(C)CN5)cc4)c4ccccc34)cc2)=N1 (centres undefined) | 4.61
c1ccc2c(Nc3ccc4c(c3)CNCC4)nnc(Nc3ccc(C4=NCCN4)cc3)c2c1 | 5.28

* * *

# system tested: UniProt P06935
# assay text: Inhibition of WNV NS2B-NS3 protease by enzymatic assay
pIC50: −log10 of the molar value.
Reported pIC50 by item:
property measured: pIC50

compound | system tested | property measured | endpoint result
N=C(N)Nc1ccc(C(=O)Oc2ccc([N+](=O)[O-])cc2)cc1 | UniProt P06935 | pIC50 | 4.47
N=C(N)c1cccc(NC(=O)Nc2cccc(C(=N)N)c2)c1 [AMICARBALIDE] | UniProt P06935 | pIC50 | 5.55

* * *

# system tested: UniProt:P06935
# assay text: Inhibition of WNV NS2B-NS3 protease by tryptophan fluorescence assay
property measured: Kd (µM)

compound | uom | endpoint result
N=C(N)Nc1ccc(C(=O)Oc2ccc([N+](=O)[O-])cc2)cc1 | µM | 16
N=C(N)c1cccc(NC(=O)Nc2cccc(C(=N)N)c2)c1 [AMICARBALIDE] | µM | 15

Entry source: ChEMBL document CHEMBL1158471
